# target_of_assay: A1 receptors (Rattus norvegicus)
# Construct: the brain is quickly removed and washed in cold isotonic solution; from tissue; host or cells: rat brain hemispheres (membrane homogenate)
# Sequence (P25099 whole entry): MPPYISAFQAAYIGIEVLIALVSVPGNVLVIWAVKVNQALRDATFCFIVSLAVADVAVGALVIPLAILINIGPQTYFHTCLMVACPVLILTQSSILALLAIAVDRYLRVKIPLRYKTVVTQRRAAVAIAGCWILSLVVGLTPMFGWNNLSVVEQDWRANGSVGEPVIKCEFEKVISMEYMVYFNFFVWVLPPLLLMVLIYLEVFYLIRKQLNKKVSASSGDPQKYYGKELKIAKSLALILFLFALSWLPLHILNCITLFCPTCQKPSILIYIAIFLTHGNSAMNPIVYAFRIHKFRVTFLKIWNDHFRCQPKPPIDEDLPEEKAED
# measurement_notes: Binding to adenosine A1 receptors: competitive displacement of [^3 H] PIA, rat brain membranes
# test_settings: 10^-5 M; [^3 H] PIA 2.5 nM; n=3; read-out: % displacement of the labeled ligand, A1, 1E-5M
quantity_name: inhibition at 10 µM (%)

Record lookup: for A1 receptors (Rattus norvegicus), what inhibition at 10 µM belongs to O=C(NC1CC1)[C@H]1O[C@@H](n2cnc3c(NCC4CC4(c4ccccc4)c4ccccc4)ncnc32)[C@H](O)[C@@H]1O (single isomer, unassigned) [Example 43] ? 97

Record lookup: for A1 receptors (Rattus norvegicus), what inhibition at 10 µM belongs to O=C(NC1CC1)[C@H]1O[C@@H](n2cnc3c(NCC4CC4(c4ccccc4)c4ccccc4)ncnc32)[C@H](O)[C@@H]1O (mixture of isomers) [Example 42] ? 96

Record lookup: for A1 receptors (Rattus norvegicus), what inhibition at 10 µM belongs to CCNC(=O)[C@H]1O[C@@H](n2cnc3c(NCC4CC4(c4ccccc4)c4ccccc4)ncnc32)[C@H](O)[C@@H]1O (single isomer, unassigned) [Example 48] ? 99

---

# target_of_assay: A1 receptors (Rattus norvegicus)
# Construct: the brain is quickly removed and washed in cold isotonic solution; from tissue; host or cells: rat brain hemispheres (membrane homogenate)
# measurement_notes: Binding to adenosine A1 receptors: competitive displacement of [^3 H] PIA, rat brain membranes
# test_settings: 10^-7 M; [^3 H] PIA 2.5 nM; n=3; 0.1 µM
quantity_name: % displacement of the labeled ligand, A1, 1E-7M (%)

Here are 2 molecules together with their reported answers.
What does the record list as % displacement of the labeled ligand, A1, 1E-7M for O=C(NC1CC1)[C@H]1O[C@@H](n2cnc3c(NCC4CC4(c4ccccc4)c4ccccc4)ncnc32)[C@H](O)[C@@H]1O (single isomer, unassigned) [Example 43] ? 44

What does the record list as % displacement of the labeled ligand, A1, 1E-7M for O=C(NC1CC1)[C@H]1O[C@@H](n2cnc3c(NCC4CC4(c4ccccc4)c4ccccc4)ncnc32)[C@H](O)[C@@H]1O (single isomer, unassigned) [Example 44] ? 10

(a) CCNC(=O)[C@H]1O[C@@H](n2cnc3c(NCC4CC4(c4ccccc4)c4ccccc4)ncnc32)[C@H](O)[C@@H]1O (single isomer, unassigned) [Example 48]
(b) CCNC(=O)[C@H]1O[C@@H](n2cnc3c(NCC4CC4(c4ccccc4)c4ccccc4)ncnc32)[C@H](O)[C@@H]1O (single isomer, unassigned) [Example 49]
Between the entries labeled a and b , whose measured % displacement of the labeled ligand, A1, 1E-7M is lower? State the label of the item chosen. b
(b: 15%, a: 54%)

---

# target_of_assay: A2 receptors (Rattus norvegicus)
# Construct: The two hemispheres are separated and the striatum is removed from each of them (Bruns et al., 1986); from tissue; host or cells: rat striatum (membrane homogenate)
# measurement_notes: Binding to adenosine A2 receptors: competitive displacement of [^3 H] NECA, rat striatum membranes
# test_settings: 10^-7 M; [^3 H] NECA 4 nM; n=3; 0.1 µM
quantity_name: % displacement of the labeled ligand, A2, 1E-7M (%)

Here are 2 compounds together with their reported answers.
What does the record list as % displacement of the labeled ligand, A2, 1E-7M for O=C(NC1CC1)[C@H]1O[C@@H](n2cnc3c(NCC4CC4(c4ccccc4)c4ccccc4)ncnc32)[C@H](O)[C@@H]1O (single isomer, unassigned) [Example 44] ? 19

What does the record list as % displacement of the labeled ligand, A2, 1E-7M for CCNC(=O)[C@H]1O[C@@H](n2cnc3c(NCC4CC4(c4ccccc4)c4ccccc4)ncnc32)[C@H](O)[C@@H]1O (single isomer, unassigned) [Example 48] ? 71

(a) O=C(NC1CC1)[C@H]1O[C@@H](n2cnc3c(NCC4CC4(c4ccccc4)c4ccccc4)ncnc32)[C@H](O)[C@@H]1O (single isomer, unassigned) [Example 43]
(b) CCNC(=O)[C@H]1O[C@@H](n2cnc3c(NCC4CC4(c4ccccc4)c4ccccc4)ncnc32)[C@H](O)[C@@H]1O (single isomer, unassigned) [Example 49]
Between the two listed entries a and b , which has its % displacement of the labeled ligand, A2, 1E-7M at the higher number? State the label of the item chosen. a

---

# target_of_assay: A2 receptors (Rattus norvegicus, UniProt P30543)
# Construct: The two hemispheres are separated and the striatum is removed from each of them (Bruns et al., 1986); from tissue; host or cells: rat striatum (membrane homogenate)
# Sequence (P30543 whole entry): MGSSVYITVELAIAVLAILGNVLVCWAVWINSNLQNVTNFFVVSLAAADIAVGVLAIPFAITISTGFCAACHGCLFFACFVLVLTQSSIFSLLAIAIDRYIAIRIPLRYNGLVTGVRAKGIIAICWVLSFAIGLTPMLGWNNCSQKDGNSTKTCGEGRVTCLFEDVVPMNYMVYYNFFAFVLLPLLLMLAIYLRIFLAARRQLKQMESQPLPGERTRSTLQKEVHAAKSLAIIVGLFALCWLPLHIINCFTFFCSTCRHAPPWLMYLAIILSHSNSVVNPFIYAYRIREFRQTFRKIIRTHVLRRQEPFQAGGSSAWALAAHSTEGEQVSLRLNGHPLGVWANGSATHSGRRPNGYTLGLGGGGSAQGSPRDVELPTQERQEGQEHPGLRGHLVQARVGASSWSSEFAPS
# measurement_notes: Binding to adenosine A2 receptors: competitive displacement of [^3 H] NECA, rat striatum membranes
# test_settings: 10^-5 M; [^3 H] NECA 4 nM; n=3; read-out: % displacement of the labeled ligand, A2, 1E-5M
quantity_name: inhibition at 10 µM (%)

What does the record list as inhibition at 10 µM for O=C(NC1CC1)[C@H]1O[C@@H](n2cnc3c(NCC4CC45c4ccccc4-c4ccccc45)ncnc32)[C@H](O)[C@@H]1O (mixture of isomers) ? 92

What does the record list as inhibition at 10 µM for OC[C@H]1O[C@@H](n2cnc3c(NCC4CC4(c4ccccc4)c4cc(Cl)cc(Cl)c4)ncnc32)[C@H](O)[C@@H]1O (mixture of isomers) ? 92

What does the record list as inhibition at 10 µM for OC[C@H]1O[C@@H](n2cnc3c(NCC4CC4(c4ccccc4)c4ccccc4)ncnc32)[C@H](O)[C@@H]1O (mixture of isomers) ? 95

What does the record list as inhibition at 10 µM for O=C(NC1CC1)[C@H]1O[C@@H](n2cnc3c(NCC4CC4(c4ccc(F)cc4)c4ccc(F)cc4)ncnc32)[C@H](O)[C@@H]1O (mixture of isomers) ? 89

What does the record list as inhibition at 10 µM for CCNC(=O)[C@H]1O[C@@H](n2cnc3c(NCC4CC4(c4ccccc4)c4ccccc4)ncnc32)[C@H](O)[C@@H]1O (single isomer, unassigned) [Example 48] ? 92

What does the record list as inhibition at 10 µM for O=C(NC1CC1)[C@H]1O[C@@H](n2cnc3c(NCC4CC4(c4ccccc4)c4ccccc4)ncnc32)[C@H](O)[C@@H]1O (single isomer, unassigned) [Example 43] ? 96

What does the record list as inhibition at 10 µM for CC(C)NC(=O)[C@H]1O[C@@H](n2cnc3c(NCC4CC4(c4ccccc4)c4ccccc4)ncnc32)[C@H](O)[C@@H]1O (mixture of isomers) ? 84

What does the record list as inhibition at 10 µM for O=C(NC1CC1)[C@H]1O[C@@H](n2cnc3c(NCC4CC45c4ccccc4CCc4ccccc45)ncnc32)[C@H](O)[C@@H]1O (mixture of isomers) ? 79

What does the record list as inhibition at 10 µM for CCNC(=O)[C@H]1O[C@@H](n2cnc3c(NCC4CC4(c4ccccc4)c4ccccc4)ncnc32)[C@H](O)[C@@H]1O (mixture of isomers) [Example 41] ? 100

What does the record list as inhibition at 10 µM for O=C(NC1CC1)[C@H]1O[C@@H](n2cnc3c(NCC4CC4(c4ccccc4)c4ccccc4)ncnc32)[C@H](O)[C@@H]1O (mixture of isomers) [Example 42] ? 94

---

# target_of_assay: A2 receptors (Rattus norvegicus)
# Construct: The two hemispheres are separated and the striatum is removed from each of them (Bruns et al., 1986); from tissue; host or cells: rat striatum (membrane homogenate)
# measurement_notes: Binding to adenosine A2 receptors: competitive displacement of [^3 H] NECA, rat striatum membranes
# test_settings: 10^-7 M; [^3 H] NECA 4 nM; n=3; read-out: % displacement of the labeled ligand, A2, 1E-7M
quantity_name: inhibition at 0.1 µM (%)

Here are 3 compounds together with their reported answers.
What does the record list as inhibition at 0.1 µM for OC[C@H]1O[C@@H](n2cnc3c(NCC4CC4(c4ccccc4)c4ccccc4)ncnc32)[C@H](O)[C@@H]1O (mixture of isomers) ? 56

What does the record list as inhibition at 0.1 µM for O=C(NC1CC1)[C@H]1O[C@@H](n2cnc3c(NCC4CC45c4ccccc4CCc4ccccc45)ncnc32)[C@H](O)[C@@H]1O (mixture of isomers) ? 12

What does the record list as inhibition at 0.1 µM for O=C(NC1CC1)[C@H]1O[C@@H](n2cnc3c(NCC4CC4(c4ccc(F)cc4)c4ccc(F)cc4)ncnc32)[C@H](O)[C@@H]1O (mixture of isomers) ? 53

(P) O=C(NC1CC1)[C@H]1O[C@@H](n2cnc3c(NCC4CC4(c4ccccc4)c4ccccc4)ncnc32)[C@H](O)[C@@H]1O (mixture of isomers)
(Q) OC[C@H]1O[C@@H](n2cnc3c(NCC4CC4(c4ccccc4)c4cc(Cl)cc(Cl)c4)ncnc32)[C@H](O)[C@@H]1O (mixture of isomers)
(R) CC(C)NC(=O)[C@H]1O[C@@H](n2cnc3c(NCC4CC4(c4ccccc4)c4ccccc4)ncnc32)[C@H](O)[C@@H]1O (mixture of isomers)
List items by inhibition at 0.1 µM in falling order. Please, when replying, give the labels in the order that was requested. P, Q, R
(P: 59%, Q: 28%, R: 17%)

(1) O=C(NC1CC1)[C@H]1O[C@@H](n2cnc3c(NCC4CC45c4ccccc4-c4ccccc45)ncnc32)[C@H](O)[C@@H]1O (mixture of isomers)
(2) CCNC(=O)[C@H]1O[C@@H](n2cnc3c(NCC4CC4(c4ccccc4)c4ccccc4)ncnc32)[C@H](O)[C@@H]1O (mixture of isomers)
Between the entries labeled 1 and 2 , whose measured inhibition at 0.1 µM is lower? State the label of the item chosen. 1
(1: 38%, 2: 68%)
